Target: CDK6/Cyclin D3 (Homo sapiens (Human))
Experiment: CDK6/Cyclin D3 ADP-Glo Kinase Assay
Conditions: 100 uM ATP, read-out: CDK6/ CyclinD3 IC50
Experimental: CDK6/Cyclin D3 ADP-Glo Kinase Assay The purpose of the CDK6/Cyclin D3 assay is to evaluate the inhibition (% inhibition and IC50 values) in the presence of small molecule inhibitors by using a Luminescent based ADP-Glo assay. CDK6/Cyclin D3 catalyzes the production of ADP from ATP. ADP-Glo assay monitors ADP producing biochemical reactions. […] Samples were incubated for 40 minutes, after which plate well luminescence was measured on a Envision microplate reader. […]
pIC50: −log10 of the molar value.
Measurement Kind: pIC50

Report pIC50 for Cc1cc2cnc(NC3CCN(S(C)(=O)=O)CC3)nc2c(C2CC3(CNCC3(F)F)C2)n1 (centres unmarked) please.
> 6.70

Report pIC50 for "Cc1cc2cnc(Nc3ccc4c(c3)CN(C3CC3)C4)nc2c(N2CC3(CCNC3)C2)n1" please.
> 6.70

Report pIC50 for "Cc1cc2cnc(NC3CCN(S(=O)(=O)c4cnn(C)c4)CC3)nc2c(N2CC3(CCNCC3(F)F)C2)n1" please.
> 6.70

Report pIC50 for Cc1cc2cnc(NC3CCN(S(C)(=O)=O)CC3)nc2c(C2CC(O)(C3CC3)C2)n1 (centres unmarked) please.
> 6.70

* * *

biological target: CDK1/Cyclin B1 (Homo sapiens (Human)); assay: CDK1/Cyclin B1 ADP-Glo Kinase Assay; format: biochemical; conditions: ADP-Glo, 80 uM ATP; read-out: CDK1 Cyclin B1 IC50
Sequence (P06493 whole entry): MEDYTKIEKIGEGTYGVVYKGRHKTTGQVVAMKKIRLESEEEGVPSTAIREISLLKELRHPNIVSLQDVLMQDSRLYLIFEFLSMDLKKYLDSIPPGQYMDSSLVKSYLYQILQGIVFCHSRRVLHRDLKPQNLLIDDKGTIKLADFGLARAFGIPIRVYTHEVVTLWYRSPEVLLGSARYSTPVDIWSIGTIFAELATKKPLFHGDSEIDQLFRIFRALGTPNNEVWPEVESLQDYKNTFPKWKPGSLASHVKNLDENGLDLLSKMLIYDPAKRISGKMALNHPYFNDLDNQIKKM
Sequence (P14635 whole entry partner): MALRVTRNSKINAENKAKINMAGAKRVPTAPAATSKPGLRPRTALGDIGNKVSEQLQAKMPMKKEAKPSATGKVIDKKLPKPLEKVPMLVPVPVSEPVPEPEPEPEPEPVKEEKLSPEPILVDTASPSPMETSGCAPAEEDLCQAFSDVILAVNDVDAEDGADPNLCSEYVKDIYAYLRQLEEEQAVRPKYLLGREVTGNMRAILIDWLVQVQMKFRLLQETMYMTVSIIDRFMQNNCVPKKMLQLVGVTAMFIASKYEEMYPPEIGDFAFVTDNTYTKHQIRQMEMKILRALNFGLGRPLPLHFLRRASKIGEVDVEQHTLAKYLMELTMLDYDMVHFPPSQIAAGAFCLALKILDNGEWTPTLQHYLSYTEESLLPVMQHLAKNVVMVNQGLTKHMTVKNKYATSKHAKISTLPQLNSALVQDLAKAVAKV
pIC50: −log10 of the molar value.
Measurement Kind: pIC50

Use these answered entries as a reference point.
[
  {
    "Compound": "Cc1cc2cnc(NC3CCN(S(C)(=O)=O)CC3)nc2c(N2CC3(CCC(=O)N3)C2)n1",
    "Measurement Kind": "pIC50",
    "Test Value": "6.30 to 6.70"
  },
  {
    "Compound": "Cc1cc2cnc(NC3CCN(S(C)(=O)=O)CC3)nc2c(C2CC(C)(CO)C2)n1 (stereo not drawn)",
    "Measurement Kind": "pIC50",
    "Test Value": "> 6.70"
  },
  {
    "Compound": "Cc1cc2cnc(NC3CCN(S(=O)(=O)C4CC4)CC3)nc2c(N2CC3(C2)CC(C)(O)C3)n1",
    "Measurement Kind": "pIC50",
    "Test Value": "6.30 to 6.70"
  },
  {
    "Compound": "CN1CCN(c2ccc(Nc3ncc4ccnc(N5CCC6(C5)CC(F)(F)C6)c4n3)cc2)CC1",
    "Measurement Kind": "pIC50",
    "Test Value": "6.30 to 6.70"
  },
  {
    "Compound": "CN1Cc2ccc(Nc3ncc4ccnc(N5CC6(C5)CS(=O)(=O)C6)c4n3)cc2C1",
    "Measurement Kind": "pIC50",
    "Test Value": "5.70 to 6.30"
  },
  {
    "Compound": "Cc1cc2cnc(NC3CCN(S(C)(=O)=O)CC3)nc2c(N2CC(F)(F)C3(CN(C)C3)C2)n1",
    "Measurement Kind": "pIC50",
    "Test Value": "> 6.70"
  },
  {
    "Compound": "Cc1cc2cnc(Nc3cc4c(cc3F)CN(S(C)(=O)=O)C4)nc2c(N2CC3(CCNC3)C2)n1",
    "Measurement Kind": "pIC50",
    "Test Value": "< 5.70"
  },
  {
    "Compound": "CS(=O)(=O)N1CCC(Nc2ncc3ccnc(N4CC5(CCCC5)c5c(F)cccc54)c3n2)CC1",
    "Measurement Kind": "pIC50",
    "Test Value": "< 5.70"
  },
  {
    "Compound": "Cc1cc2cnc(NC3CCN(S(C)(=O)=O)CC3)nc2c(N2CCC3(C2)CC3(F)F)n1 (stereo not drawn)",
    "Measurement Kind": "pIC50",
    "Test Value": "> 6.70"
  },
  {
    "Compound": "CN1C[C@@H]2[C@H](C1)[C@H]2Nc1ncc2ccnc(N3CCC4(CCN(S(C)(=O)=O)C4)C3)c2n1 (stereo partly drawn)",
    "Measurement Kind": "pIC50",
    "Test Value": "< 5.70"
  }
]

Report pIC50 for "Cc1cc2cnc(NC3CCN(S(=O)(=O)C4CC4)CC3)nc2c(N2CC3(CCNCC3(F)F)C2)n1" please.
> 6.70

Report pIC50 for Cc1cc2cnc(NC3CCN(S(C)(=O)=O)CC3)nc2c(C2CC(O)(C(F)F)C2)n1 (stereo not drawn) please.
> 6.70

* * *

target: CDK4/Cyclin D1 (Homo sapiens (Human)); experiment: CDK4/Cyclin D1 CHEF Assay (AQT0258 peptide); type: biochemical; settings: 200 uM ATP, read-out: CDK4/ CyclinD1 AQT IC50
Sequence (P11802 whole entry): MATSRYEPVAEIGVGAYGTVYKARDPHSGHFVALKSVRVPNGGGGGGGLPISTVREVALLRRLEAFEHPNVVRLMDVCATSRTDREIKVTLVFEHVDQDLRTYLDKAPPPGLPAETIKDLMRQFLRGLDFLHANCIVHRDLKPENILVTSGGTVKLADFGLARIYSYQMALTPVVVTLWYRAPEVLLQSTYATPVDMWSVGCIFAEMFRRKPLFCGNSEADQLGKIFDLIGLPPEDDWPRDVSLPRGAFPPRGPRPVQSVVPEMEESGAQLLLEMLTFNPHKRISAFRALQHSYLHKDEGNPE
Sequence (P24385 whole entry partner): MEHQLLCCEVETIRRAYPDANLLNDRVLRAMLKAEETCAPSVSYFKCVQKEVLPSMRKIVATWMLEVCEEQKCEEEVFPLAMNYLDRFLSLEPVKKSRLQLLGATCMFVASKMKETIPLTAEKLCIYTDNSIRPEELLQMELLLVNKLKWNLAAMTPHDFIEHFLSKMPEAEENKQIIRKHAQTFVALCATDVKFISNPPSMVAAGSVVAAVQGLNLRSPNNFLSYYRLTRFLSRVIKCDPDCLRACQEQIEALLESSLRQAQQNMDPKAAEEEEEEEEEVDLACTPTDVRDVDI
Measurement Kind: IC50

[
  {
    "Compound": "[2H]C([2H])([2H])N1CC2(CN(c3nc(C)cc4cnc(NC5CCN(S(C)(=O)=O)CC5)nc34)CC2(F)F)C1 [Example 12]",
    "IC50": "< 200 nM"
  },
  {
    "Compound": "COC1CC2(C1)CN(c1nc(C)cc3cnc(NC4CCN(S(=O)(=O)C5CC5)CC4)nc13)C2 [Compound 71]",
    "IC50": "< 200 nM"
  },
  {
    "Compound": "Cc1cc2cnc(NC3CCN(S(C)(=O)=O)CC3)nc2c(N2CC3(CN(C)C[C@H]3F)C2)n1 [Compound 104]",
    "IC50": "< 200 nM"
  },
  {
    "Compound": "Cc1cc2cnc(NC3CCN(S(=O)(=O)C4CC4)CC3)nc2c(N2CC(OC3CC3)C2)n1 [Compound 57]",
    "IC50": "< 200 nM"
  }
]

Kindly consider the entry below.
Observed IC50 on CDK4/Cyclin D1 (Homo sapiens (Human)) for Cc1cc2cnc(NC3CCN(S(=O)(=O)C4CC4)CC3)nc2c(N2CC(N3CC(F)C3)C2)n1 [Compound 72] , please.
200 to 500 nM

* * *

Each entry below lists one item and its recorded IC50 value.
biological target: CDK6/Cyclin D3 (Homo sapiens (Human), UniProt Q00534); assay: CDK6/Cyclin D3 ADP-Glo Kinase Assay; conditions: 100 uM ATP, read-out: CDK6/ CyclinD3 IC50
Sequence (Q00534 whole entry): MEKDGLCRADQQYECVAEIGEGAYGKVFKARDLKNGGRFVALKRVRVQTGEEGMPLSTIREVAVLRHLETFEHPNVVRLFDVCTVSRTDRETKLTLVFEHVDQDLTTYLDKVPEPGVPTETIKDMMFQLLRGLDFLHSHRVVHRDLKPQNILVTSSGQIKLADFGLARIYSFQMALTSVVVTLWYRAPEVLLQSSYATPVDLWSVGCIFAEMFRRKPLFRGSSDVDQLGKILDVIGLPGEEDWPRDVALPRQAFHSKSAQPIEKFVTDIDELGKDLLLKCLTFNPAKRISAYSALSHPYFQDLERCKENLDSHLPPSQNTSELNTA
Sequence (P30281 whole entry partner): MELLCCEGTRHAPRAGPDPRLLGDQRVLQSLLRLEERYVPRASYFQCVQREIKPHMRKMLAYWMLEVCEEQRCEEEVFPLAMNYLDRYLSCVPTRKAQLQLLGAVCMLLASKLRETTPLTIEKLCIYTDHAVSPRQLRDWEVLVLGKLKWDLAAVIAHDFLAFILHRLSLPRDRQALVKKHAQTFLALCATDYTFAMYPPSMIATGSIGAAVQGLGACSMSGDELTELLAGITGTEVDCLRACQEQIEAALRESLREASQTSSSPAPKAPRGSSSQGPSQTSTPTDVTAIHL

Use these answered entries as a reference point.
[
  {
    "Compound": "CS(=O)(=O)N1CC(Nc2ncc3ccnc(N4CCC5(C4)CC5(F)F)c3n2)C1 (stereo not drawn)",
    "IC50": "< 200 nM"
  },
  {
    "Compound": "Cc1cc2cnc(NC3CCN(S(C)(=O)=O)CC3)nc2c(N2CC(F)(F)C3(CN(C)C3)C2)n1",
    "IC50": "< 200 nM"
  }
]

Kindly consider the entry below.
Report IC50 for "Cc1cc2cnc(NC3CCN(S(=O)(=O)C4CC4)CC3)nc2c(N2CC3(C2)CN(C2CC2)C3)n1" please.
200 to 500 nM

* * *

target: CDK6/Cyclin D3 (Homo sapiens (Human), UniProt Q00534); assay: CDK6/Cyclin D3 ADP-Glo Kinase Assay; format: biochemical; conditions: 100 uM ATP, read-out: CDK6/ CyclinD3 IC50
Each entry below lists one item and its recorded IC50 value.

[
  {
    "Molecule": "Cc1cc2cnc(NC3CCN(S(=O)(=O)c4cnn(C)c4)CC3)nc2c(N2CC(F)(F)C3(CNC3)C2)n1",
    "Test Value": "< 200 nM"
  }
]

Report IC50 for CN1Cc2ccc(Nc3ncc4ccnc(N5CCC6(C5)CC6(F)F)c4n3)cc2C1 (stereo not shown) please.
< 200 nM

Report IC50 for "CCS(=O)(=O)N1CCC(Nc2ncc3cc(C)nc(N4CC(F)(F)C5(CNC5)C4)c3n2)CC1" please.
< 200 nM

* * *

target: CDK6/Cyclin D3 (Homo sapiens (Human), UniProt Q00534); experiment: CDK6/Cyclin D3 ADP-Glo Kinase Assay; details: 100 uM ATP, read-out: CDK6/ CyclinD3 IC50
Each entry below lists one item and its recorded IC50 value.

[
  {
    "Molecule": "Cc1cc2cnc(Nc3ccc(N4CC5(CN(C)C5)C4)cc3)nc2c(N2CC3(C2)CS(=O)(=O)C3)n1",
    "Test Value": "0.2 to 0.5 µM"
  },
  {
    "Molecule": "Cc1cc2cnc(Nc3ccc(N4CC5(CN(C)C5)C4)cc3)nc2c(N2CCC3(C2)CC3(F)F)n1 (stereo not shown)",
    "Test Value": "< 0.2 µM"
  },
  {
    "Molecule": "Cc1cc2cnc(NC3CCN(S(=O)(=O)c4cnn(C)c4)CC3)nc2c(N2CC(F)(F)C3(CN(C)C3)C2)n1",
    "Test Value": "< 0.2 µM"
  },
  {
    "Molecule": "COC1CC2(C1)CN(c1nc(C3CC3)cc3cnc(NC4CCN(S(C)(=O)=O)CC4)nc13)C2",
    "Test Value": "< 0.2 µM"
  },
  {
    "Molecule": "CN1CCN(c2ccc(Nc3ncc4ccnc(N5CCC6(C5)CC(F)(F)C6)c4n3)cc2)CC1",
    "Test Value": "< 0.2 µM"
  }
]

Report IC50 for "Cc1cc2cnc(NC3CCN(S(C)(=O)=O)CC3)nc2c(N2CC3(CN(C)C[C@H]3F)C2)n1" please.
0.2 to 0.5 µM

Report IC50 for "Cc1cc2cnc(Nc3cc4c(cc3F)CN(S(C)(=O)=O)C4)nc2c(N2CC3(CNC3)C2)n1" please.
> 2 µM

Report IC50 for CS(=O)(=O)N1CCC(Nc2ncc3ccnc(N4CCC5(C4)CC5(F)F)c3n2)CC1 (stereo not shown) please.
< 0.2 µM

Report IC50 for Cc1cc2cnc(NC3CCN(S(C)(=O)=O)CC3)nc2c(N2CC3(CNCC3F)C2)n1 (stereo not shown) please.
0.2 to 0.5 µM

Report IC50 for "Cc1cc2cnc(NC3CCN(S(=O)(=O)C4CC4)CC3)nc2c(N2CC3(CCNC3)C2)n1" please.
< 0.2 µM

Report IC50 for "CS(=O)(=O)N1CCC(Nc2ncc3ccnc(N4CC5(CCCC5)c5c(F)cccc54)c3n2)CC1" please.
> 2 µM
